Reference source for all entries: patent US11439707B2

# molar extinction coefficient per record follows
assay: absorption spectrum (maximum absorption wavelength, molar extinction coefficient); assay type: physicochemical
measuredProperty: molar extinction coefficient

compound	measuredProperty	recordedResult
COCCOCCOCCOCCOCCOCCOCCOCCOCCOCCOCCOCCOC(=O)CCCNc1c2c3c4c(c(OC)c(=O)c5c(O)cc(OC)c(c6c(OC)cc(NCCCC(=O)OCCOCCOCCOCCOCCOCCOCCOCCOCCOCCOCCOCCOC)c(c1=O)c63)c54)CC(C)=C2	molar extinction coefficient	32,500 M^−1cm^−1
COc1c(NC2CCC(C(=O)O)C2)c2c(=O)cc(OC)c3c4c(OC)cc(=O)c5c(O)c(NC6CCC(C(=O)O)C6)c6c(c(c1C(C(C)=O)C(C)=C6)c23)c54 (stereo not shown) [HB-19b]	molar extinction coefficient	25,000 M^−1cm^−1
COc1c(O)c2c(=O)cc(OC)c3c4c(OC)cc(=O)c5c(NC6CCCC6C(=O)O)c(NC6CCCC6C(=O)O)c6c(c(c1C(C(C)=O)C(C)=C6)c23)c54 (stereo not shown) [HB-21a]	molar extinction coefficient	23,500 M^−1cm^−1
COCCOC(=O)CCCCCNc1c(NCCCCCC(=O)OCCOC)c2c(=O)cc(OC)c3c4c(OC)cc(=O)c5c(O)c(OC)c6c(c(c1C=C(C)C6)c23)c54	molar extinction coefficient	30,000 M^−1cm^−1
COCCOCCOCCOCCOCCOCCOC(=O)C1CCCCC1Nc1c(O)c2c(=O)cc(OC)c3c4c(OC)cc(=O)c5c(NC6CCCCC6C(=O)OCCOCCOCCOCCOCCOCCOC)c(OC)c6c(c(c1C=C(C)C6C(C)=O)c23)c54 (stereo not shown) [HB-16b-PEG6]	molar extinction coefficient	30,500 M^−1cm^−1
COc1c2c3c4c(c(NC(CC(N)=O)C(=O)O)c(=O)c5c(NC(CC(N)=O)C(=O)O)cc(OC)c(c6c(OC)cc(O)c(c1=O)c63)c54)C=C(C)C2C(C)=O (stereo not shown) [HB-26c]	molar extinction coefficient	21,500 M^−1cm^−1
COCCOCCC(=O)OCC1(Nc2c(NC3(COC(=O)CCOCCOC)CC3)c3c(=O)cc(OC)c4c5c(OC)cc(=O)c6c(O)c(OC)c7c(c(c2C=C(C)C7C(C)=O)c34)c65)CC1 (stereo not shown) [HB-35a-PEG1]	molar extinction coefficient	31,500 M^−1cm^−1
COCCOCCOCCOCCOCCOCCOCCOCCOCCOCCOCCOCCOCCN1C(=O)CN(C(=O)OCCNc2c3c4c5c(c(OC)c(=O)c6c(NCCOC(=O)N7CC(=O)N(CCOCCOCCOCCOCCOCCOCCOCCOCCOCCOCCOCCOCCOC)C(=O)C7)cc(OC)c(c7c(OC)cc(O)c(c2=O)c74)c65)C(C(C)=O)C(C)=C3)CC1=O (stereo not shown) [HB-40d-PEG12]	molar extinction coefficient	30,500 M^−1cm^−1
COc1c2c3c4c(c(NCCNCCOCCO)c(=O)c5c(O)c(Br)c(OC)c(c6c(OC)cc(NCCNCCOCCO)c(c1=O)c63)c54)C=C(C)C2C(C)=O (stereo not shown)	molar extinction coefficient	29,500 M^−1cm^−1
COc1c2c3c4c(c(NC5CCCCC5C(=O)O)c(=O)c5c(O)cc(OC)c(c6c(OC)cc(NC7CCCCC7C(=O)O)c(c1=O)c63)c54)C=C(C)C2C(C)=O (stereo not shown) [HB-16d]	molar extinction coefficient	26,500 M^−1cm^−1
COCCOCCOCCOCCOCCOCCOCCOCCOCCOCCOCCOCCOC(=O)C1CCCC(Nc2c3c4c5c(c(OC)c(=O)c6c(O)cc(OC)c(c7c(OC)cc(NC8CCCC(C(=O)OCCOCCOCCOCCOCCOCCOCCOCCOCCOCCOCCOCCOC)C8)c(c2=O)c74)c65)C(C(C)=O)C(C)=C3)C1 (stereo not shown) [HB-15c-PEG12]	molar extinction coefficient	33,000 M^−1cm^−1
COc1c(NCCS(=O)(=O)OC)c2c(=O)cc(OC)c3c4c(OC)cc(=O)c5c(O)c(NCCS(=O)(=O)OC)c6c(c(c1C(C(C)=O)C(C)=C6)c23)c54 (stereo not shown) [HB-12b]	molar extinction coefficient	22,500 M^−1cm^−1
COCCOC(=O)C1CCC(CNc2c(NCC3CCC(C(=O)OCCOC)CC3)c3c(=O)cc(OC)c4c5c(OC)cc(=O)c6c(O)c(OC)c7c(c(c2C=C(C)C7)c34)c65)CC1 (stereo not shown) [HC-13a-PEG1]	molar extinction coefficient	30,000 M^−1cm^−1
COCCOCCOCCOCCOCCOCCOC(=O)C1CCCC(Nc2c3c4c5c(c(OC)c(=O)c6c(NC7CCCC(C(=O)OCCOCCOCCOCCOCCOCCOC)C7)cc(OC)c(c7c(OC)cc(O)c(c2=O)c74)c65)C(C(C)=O)C(C)=C3)C1 (stereo not shown) [HB-15d-PEG6]	molar extinction coefficient	32,500 M^−1cm^−1
COc1c2c3c4c(c(NCCS(=O)(=O)OC)c(=O)c5c(O)cc(OC)c(c6c(OC)cc(NCCS(=O)(=O)OC)c(c1=O)c63)c54)C=C(C)C2C(C)=O (stereo not shown) [HB-12d]	molar extinction coefficient	21,500 M^−1cm^−1
COc1c2c3c4c(c(NCC5CCC(C(=O)NCCCCCCS(=O)(=O)O)CC5)c(=O)c5c(NCC6CCC(C(=O)NCCCCCCS(=O)(=O)O)CC6)cc(OC)c(c6c(OC)cc(O)c(c1=O)c63)c54)C=C(C)C2 (stereo not shown) [HC-13c-C6-SO3H]	molar extinction coefficient	33,000 M^−1cm^−1
COCCOCCNc1c(NCCCC(=O)O)c2c3c4c(c(OC)c(O)c5c(=O)cc(OC)c(c6c(OC)cc(=O)c1c63)c54)C(C(C)=O)C(C)=C2 (stereo not shown) [HB-47a-PEG1]	molar extinction coefficient	30,500 M^−1cm^−1
COc1c2c3c4c(c(NCCCCCC(=O)O)c(=O)c5c(O)cc(OC)c(c6c(OC)cc(NCCCCCC(=O)O)c(c1=O)c63)c54)C=C(C)C2	molar extinction coefficient	25,000 M^−1cm^−1
COCCOCCOCCOCCOCCOCCOCCC(=O)OCCOCCNc1c2c3c4c(c(OC)c(=O)c5c(O)cc(OC)c(c6c(OC)cc(NCCOCCOC(=O)CCOCCOCCOCCOCCOCCOCCOC)c(c1=O)c63)c54)C(C(C)=O)C(C)=C2 (stereo not shown)	molar extinction coefficient	34,500 M^−1cm^−1
